The binders listed here are annotated with their t½.
- System: T1, ZIKV (prM80E) with a C-terminal myc-myc-hexahistidine tag (Zika virus, UniProt A0A024B7W1 104-694)
- T1 construct: also called ZIKV (prM80E)-mmH; ZIKV-mmH
- Measurement notes: SPR, mAb captured, 25C
A number alone suffices; assume min.

H4H25703N (antibody, V domains shown) VH: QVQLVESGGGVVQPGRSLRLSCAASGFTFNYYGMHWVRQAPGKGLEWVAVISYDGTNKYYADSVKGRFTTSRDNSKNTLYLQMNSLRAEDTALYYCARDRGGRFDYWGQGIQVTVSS VL: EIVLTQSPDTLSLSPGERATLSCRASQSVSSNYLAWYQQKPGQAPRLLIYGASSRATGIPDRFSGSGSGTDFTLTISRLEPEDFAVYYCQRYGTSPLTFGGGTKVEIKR: 37.6

Sample H4H25633P (antibody, V domains shown) VH: EVQLVESGGGLVQPGRSLRLSCAASGFTFDDYAIHWVRQAPGKGLEWVSGISWNSGYLGYADSVKGRFTISRDNAKNSLYLQMNSLRAEDTAFYYCAKDVAWGSVRHVFEIWGQGTMVTVSS VL: EIVLTQSPGTLSLSPGERATLSCRASQTITGNQLAWYQQKPGQAPRLLIYFTSSRATGIPDRFSGSGSGTDFSLTISRLEPEDFAVYFCQQFGYSPWTFGQGTKVEIK — what was its t½?
14.4
